Measured pIC50 by item
# Study target: UniProtKB P09960
# Sequence (P09960 whole entry): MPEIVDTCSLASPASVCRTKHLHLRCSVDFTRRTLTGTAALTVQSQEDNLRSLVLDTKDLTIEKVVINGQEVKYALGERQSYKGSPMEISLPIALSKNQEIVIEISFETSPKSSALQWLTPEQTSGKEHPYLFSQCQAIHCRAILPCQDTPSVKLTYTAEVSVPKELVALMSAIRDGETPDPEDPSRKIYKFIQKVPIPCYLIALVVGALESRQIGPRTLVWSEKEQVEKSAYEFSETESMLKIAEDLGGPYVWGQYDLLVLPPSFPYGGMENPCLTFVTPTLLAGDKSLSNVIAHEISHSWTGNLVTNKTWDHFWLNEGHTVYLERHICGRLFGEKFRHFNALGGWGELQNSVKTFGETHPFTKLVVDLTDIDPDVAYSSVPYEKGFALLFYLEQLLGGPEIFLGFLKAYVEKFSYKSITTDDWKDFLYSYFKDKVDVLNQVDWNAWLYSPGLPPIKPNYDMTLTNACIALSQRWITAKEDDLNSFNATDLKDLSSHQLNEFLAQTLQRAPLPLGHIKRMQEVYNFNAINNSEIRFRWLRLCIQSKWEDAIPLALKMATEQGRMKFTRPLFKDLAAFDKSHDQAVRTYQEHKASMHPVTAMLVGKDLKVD
Formally, pIC50 is defined as -log10 of the concentration c, with c in mol/L.

Some entries whose results are on file:
CN(C(=O)CO)[C@H]1CCN(Cc2cnc3cc(Oc4ccc(-c5ccn[nH]5)cn4)ccc3c2)C1    8.59
O=C1[C@@H](O)CCN1C1CCN(Cc2cnc3cc(Oc4ccc(-c5ccn[nH]5)cn4)ccc3c2)CC1    8.59
O=C1OCCN1C1CCN(Cc2cnc3cc(Oc4ccc(-c5ccn[nH]5)cn4)ccc3c2)CC1    8.72
C[C@H](O)C(=O)N1CCN(Cc2cnc3cc(Oc4ccc(-c5ccn[nH]5)cn4)ccc3c2)CC1    8.96
O=C(CO)N1CCN(Cc2cnc3cc(Oc4ccc(-c5ccn[nH]5)cn4)ccc3c2)CC1    9.16

Alright, here's another molecule for you.
Enquiry: Please report the recorded pIC50 for `O=C(C1CC1)N1CCN(Cc2cnc3cc(Oc4ccc(-c5ccn[nH]5)cn4)ccc3c2)CC1` .
Return: 9.03

Hey, just so you know, these numbers are from patent US9303018B2.
